Tested on: Rattus norvegicus
Experiment: Antianaphylactic activity in po dosed male Sprague-Dawley rat assessed as inhibition of egg albumin/Bordetella pertussis-induced passive cutaneous anaphylaxis reaction
Type: functional
Conditions: read-out: ID50 (the source's name)
Outcome measure: ED50

Tested on Rattus norvegicus: CCc1ccc2occ(-c3nnn[nH]3)c(=O)c2c1 . Observed ED50: 5.9 mg/kg

Tested on Rattus norvegicus: O=Cc1ccc2occ(-c3nnn[nH]3)c(=O)c2c1 . Observed ED50: > 20 mg/kg

Tested on Rattus norvegicus: CCC(O)c1ccc2occ(-c3nnn[nH]3)c(=O)c2c1 (centres undefined) . Observed ED50: > 20 mg/kg

Tested on Rattus norvegicus: O=c1c(-c2nnn[nH]2)coc2ccc(CCO)cc12 . Observed ED50: > 20 mg/kg

Tested on Rattus norvegicus: CC(=O)c1ccc2occ(-c3nnn[nH]3)c(=O)c2c1 . Observed ED50: 6.6 mg/kg

Tested on Rattus norvegicus: O=c1c(-c2nnn[nH]2)coc2ccc(C(O)CO)cc12 (centres undefined) . Observed ED50: > 20 mg/kg

Below are some molecules; for each one, tell me its ED50.
1. O=C([O-])c1cc(=O)c2c(OCC(O)COc3cccc4oc(C(=O)[O-])cc(=O)c34)cccc2o1.[Na+].[Na+] [CROMOLYN SODIUM]
2. CC(=O)OC(C)c1ccc2occ(-c3nnn[nH]3)c(=O)c2c1 (centres undefined)
3. CC(O)c1ccc2occ(-c3nnn[nH]3)c(=O)c2c1 (centres undefined)

1. > 100 mg/kg
2. > 20 mg/kg
3. 13.4 mg/kg
